- System: HOP-62 NSCLC
- assay: NCI tumour cell line growth inhibition, 48 h
readout: TGI

What does the data say about its TGI? Entry: Cc1ccc(O)c(-c2cc(-c3cccc(Br)c3)c(C#N)c(N)n2)c1
> 100 µM

Also O=C1CC(=O)c2c(N3CCCC3)sc(N3CCCC3)c21 , if possible.
> 100 µM

Also CCCCN(CC)C(=O)C1=C(C)NC(C)=C(C(=O)N(CC)CCCC)C1 , if possible.
> 100 µM

Also O=c1c(-c2ccccc2)c(SCCN2CCCC2)n(-c2ccccc2)c(=S)n1-c1ccccc1 , if possible.
> 100 µM

----------
Please respond with reported TGI for every item in the list.
- Test system: CAKI-1 renal
- assay: NCI tumour cell line growth inhibition, 48 h

What does the data say about its TGI? Entry: NCCCNc1nc2ccccc2c2c(=O)c3cccc(F)c3sc12
2.75 µM

Also COc1ccccc1-c1cc(=O)c2c(C)cc(C)nc2[nH]1 , if possible.
> 100 µM

Also CCOC(=O)NC(NCC(O)c1ccccc1)(C(F)(F)F)C(F)(F)F (stereo not given) , if possible.
> 100 µM

Also O=C1c2cccc3cc4ccccc4c(c23)C(=O)N1CCNCCN1C(=O)c2cccc3cc4ccccc4c(c23)C1=O , if possible.
1.04 µM

Also [N-]=[N+]=CC(=O)OC1CCOCC1 , if possible.
> 100 µM

Also C#CCn1c(=O)[nH]c(=O)c2cccnc21 , if possible.
> 100 µM

Also NC(CCCCO)C(=O)O (stereo not given) , if possible.
> 100 µM

Also CC(=O)O[C@H]1CC[C@@]2(C)C(=CC[C@@H]3C2CC[C@]2(C)Nc4c(cnn4-c4ccccc4)CC32)C1 (stereo not given in full) , if possible.
> 100 µM

Also CSc1ccc(C2=NN(c3ccccc3)C(c3ccc(-c4cc(Cl)c(Cl)cc4Cl)o3)C2)cc1 (stereo not given) , if possible.
> 100 µM

Also CCOC(=O)CCC(C(=O)OCC)n1nc2ccc(Nc3c(C)[n+]([O-])c4ccc(Cl)cc4[n+]3[O-])cc2n1 (stereo not given) , if possible.
> 100 µM

Also OCN(CO)c1ccc2c(c1)Cc1cc(F)ccc1-2 , if possible.
44.6 µM

Also O=C1NC(=O)/C(=C/c2ccc3ncccc3c2)S1 , if possible.
> 25 µM

Also FC(F)(F)c1ccc2c(c1)nc(-c1ccccc1)n2CC1CCCN2CCCCC12 (stereo not given) , if possible.
> 100 µM

Also COc1ccccc1/C=C/C(=O)c1ccc(Nc2nc(Nc3ccc(F)cc3)nc(Nc3ccc(F)cc3)n2)cc1 , if possible.
> 100 µM

Also O=[N+]([O-])c1cc([N+](=O)[O-])c(NN=C(c2ccc(O)cc2)c2ccc(O)cc2)cc1Cl , if possible.
3.34 µM
